ASSAY_TARGET: T1, Human PD-1 (Swiss-Prot entry Q15116), full length, on cells (human, UniProt Q15116 21-288)
T1 construct: Full length open reading frame of hPD-1 stably expressed on CHO-K1 cells; also endogenous PD-1 on CD3/CD28-stimulated human CD3+ T cells and PD-1 on transfected Jurkat cells; also called hPD-1; hPDCD1
T1 sequence (Q15116 21-288, one chain of several): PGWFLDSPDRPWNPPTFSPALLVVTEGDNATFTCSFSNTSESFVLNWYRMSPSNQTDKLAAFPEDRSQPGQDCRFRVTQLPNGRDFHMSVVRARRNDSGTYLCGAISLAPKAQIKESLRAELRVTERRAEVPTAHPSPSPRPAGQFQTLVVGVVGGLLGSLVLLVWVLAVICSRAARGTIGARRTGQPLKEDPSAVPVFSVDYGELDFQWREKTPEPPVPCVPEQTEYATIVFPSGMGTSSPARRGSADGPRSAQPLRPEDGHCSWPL
MEASUREMENT_DESCRIPTION: CELISA on CHO-K1.hPDCD1 cells; blocking of biotinylated hPD-L1 Fc
ASSAY_READOUT: IC50 (nM)
Express it in nM; write the number only.

Worked cases, IC50 given:
{"BINDER": "hPD1.29H5_Y32D_L4 (antibody, V domains shown, IgG4 S241P kappa format of the parent) VH: EVQLVQSGAEVKKPGASVKVSCKASGYIFTTDYIHWVKQAPGKGLEWIGWIFPGDVSTQYNEKFQDKATITVDKSASTAYMQLSSLRSEDTAVYYCTREAYDYAVYWGQGTLVTVSS VL: DIQMTQAPSSLSASVGDRVTITCKASQNVDTNVAWFQQKPGKAPKSLIFSASYRYSGVPSRFSGSGSGTDFTLTISSLQPEDFATYYCQQYNNYPFTFGGGTKLEIK", "QUANTITY_UNIT": "nM", "IC50": 1.4}
{"BINDER": "hPD1.29H5_I28D_T30D_L4 (antibody, V domains shown, Mutant of hPD1.29H5L4 (human IgG4 S241P kappa format of the parent)) VH: EVQLVQSGAEVKKPGASVKVSCKASGYDFDTYYIHWVKQAPGKGLEWIGWIFPGDVSTQYNEKFQDKATITVDKSASTAYMQLSSLRSEDTAVYYCTREAYDYAVYWGQGTLVTVSS VL: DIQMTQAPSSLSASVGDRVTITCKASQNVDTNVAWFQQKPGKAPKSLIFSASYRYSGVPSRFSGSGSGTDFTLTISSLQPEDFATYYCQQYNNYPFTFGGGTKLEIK", "QUANTITY_UNIT": "nM", "IC50": 1.6}
{"BINDER": "hPD1.29H5_T30D_L4 (antibody, V domains shown, Mutant of hPD1.29H5L4 (human IgG4 S241P kappa format of the parent)) VH: EVQLVQSGAEVKKPGASVKVSCKASGYIFDTYYIHWVKQAPGKGLEWIGWIFPGDVSTQYNEKFQDKATITVDKSASTAYMQLSSLRSEDTAVYYCTREAYDYAVYWGQGTLVTVSS VL: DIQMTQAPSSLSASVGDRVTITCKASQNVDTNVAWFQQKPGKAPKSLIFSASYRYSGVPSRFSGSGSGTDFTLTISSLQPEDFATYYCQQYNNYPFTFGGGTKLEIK", "QUANTITY_UNIT": "nM", "IC50": 1.6}

The binder hPD1.29H5L4 (antibody, V domains shown, Expressed as human IgG4, kappa with the stabilizing S241P (Kabat) hinge mutation in HEK293 cells; also called humanized PD-1 antibody hPD1.29H5L4) VH: EVQLVQSGAEVKKPGASVKVSCKASGYIFTTYYIHWVKQAPGKGLEWIGWIFPGDVSTQYNEKFQDKATITVDKSASTAYMQLSSLRSEDTAVYYCTREAYDYAVYWGQGTLVTVSS VL: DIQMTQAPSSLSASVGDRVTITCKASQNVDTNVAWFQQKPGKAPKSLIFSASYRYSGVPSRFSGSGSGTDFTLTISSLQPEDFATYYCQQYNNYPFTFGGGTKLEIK showed IC50 equal to 1.3

Item: hPD1.29H5_T31D_L4 (antibody, V domains shown, Mutant of hPD1.29H5L4 (human IgG4 S241P kappa format of the parent)) VH: EVQLVQSGAEVKKPGASVKVSCKASGYIFTDYYIHWVKQAPGKGLEWIGWIFPGDVSTQYNEKFQDKATITVDKSASTAYMQLSSLRSEDTAVYYCTREAYDYAVYWGQGTLVTVSS VL: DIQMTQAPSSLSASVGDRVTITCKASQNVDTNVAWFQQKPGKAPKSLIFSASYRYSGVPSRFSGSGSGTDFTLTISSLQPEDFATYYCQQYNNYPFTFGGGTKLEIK | IC50: 1.7
